The reported measurements were obtained from patent US20060223812A1.

target: htau23 (Homo sapiens, UniProt P10636); construct: made in house; host or cells: E. coli; assay: Thioflavine S assay, inhibition of PHF formation, htau23; format: biochemical
Sequence (P10636 1-352 isoform P10636-2): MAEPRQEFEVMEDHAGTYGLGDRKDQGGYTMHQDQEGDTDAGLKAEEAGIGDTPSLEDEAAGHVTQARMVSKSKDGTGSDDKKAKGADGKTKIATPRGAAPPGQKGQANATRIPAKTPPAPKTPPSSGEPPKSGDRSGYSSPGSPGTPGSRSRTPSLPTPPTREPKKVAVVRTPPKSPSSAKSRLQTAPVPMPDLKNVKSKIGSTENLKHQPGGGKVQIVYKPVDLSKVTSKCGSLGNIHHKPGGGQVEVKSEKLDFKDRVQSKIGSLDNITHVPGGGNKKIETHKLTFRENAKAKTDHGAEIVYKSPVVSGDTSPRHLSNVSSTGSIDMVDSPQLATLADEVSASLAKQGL
measured-quantity: IC50 (nM)

compound="COc1cccc2c1C(=O)c1c(O)c3c(c(O)c1C2=O)CC(O)(C(=O)CO)CC3OC1CC(N)C(O)C(C)O1 (stereo not shown) [Adriamycin, reference compound]" recorded_number=200

====

biological target: four repeat construct K18 (Homo sapiens, UniProt P10636); construct: made in house; host or cells: E. coli; test: Thioflavine S assay, inhibition of PHF formation, K18; type: biochemical
Sequence (P10636 561-685 limits assumed): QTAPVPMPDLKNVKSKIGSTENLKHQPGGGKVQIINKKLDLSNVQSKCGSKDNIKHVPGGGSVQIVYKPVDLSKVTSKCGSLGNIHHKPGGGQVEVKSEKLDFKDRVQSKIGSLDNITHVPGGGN
pIC50: −log10 of the molar value.
measured-quantity: pIC50

compound="COc1cccc2c1C(=O)c1c(O)c3c(c(O)c1C2=O)CC(O)(C(=O)CO)CC3OC1CC(N)C(O)C(C)O1 (stereo not shown) [Adriamycin, reference compound]" recorded_number=7.00

====

target: PHFs from htau23 (Homo sapiens); construct: made in house; host or cells: E. coli; assay: Thioflavine S assay, depolymerisation of pre-formed PHFs, htau23; type: biochemical; details: ThS fluorescence, read-out: Depolymerisation of PHFs DC50, hTau23
Sequence (P10636 1-352 isoform P10636-2): as the sequence (P10636 1-352 isoform P10636-2) above
measured-quantity: DC50 (µM)

compound="Cc1cc(O)c2c(c1)C(=O)c1cc(O)cc(O)c1C2=O [Emodin, 1,3,8-Trihydroxy-6-methyl-anthraquinone]" inequality_operator== recorded_number=7
compound=O=C(c1ccccc1)c1ccc(O)c(O)c1O inequality_operator=> recorded_number=60
compound="O=C1c2ccc(O)c(O)c2C(=O)c2c(O)ccc(O)c21 [PHF016, 1,2,5,8-Tetrahydroxy-anthraquinone]" inequality_operator=> recorded_number=60
compound="COc1cccc2c1C(=O)c1c(O)c3c(c(O)c1C2=O)CC(O)(C(C)=O)CC3OC1CC(N)C(O)C(C)O1 (stereo not shown) [Daunorubicin, reference compound]" inequality_operator== recorded_number=8.2

====

test system: K18/Y310W; test: Tryptophan fluorescence inhibition assay, K18/Y310W; format: biochemical, human; conditions: 60 μM compound
measured-quantity: inhibition of PHF formation, K18/Y310W, Trp fluorescence

compound="O=C1c2ccc(O)c(O)c2C(=O)c2c(O)ccc(O)c21 [PHF016, 1,2,5,8-Tetrahydroxy-anthraquinone]" result=25%
compound="Cc1cc(O)c2c(c1)C(=O)c1cc(O)cc(O)c1C2=O [Emodin, 1,3,8-Trihydroxy-6-methyl-anthraquinone]" result="about 70%"
compound="COc1cccc2c1C(=O)c1c(O)c3c(c(O)c1C2=O)CC(O)(C(=O)CO)CC3OC1CC(N)C(O)C(C)O1 (stereo not shown) [Adriamycin, reference compound]" result="about 70%"
compound="COc1cccc2c1C(=O)c1c(O)c3c(c(O)c1C2=O)CC(O)(C(C)=O)CC3OC1CC(N)C(O)C(C)O1 (stereo not shown) [Daunorubicin, reference compound]" result="about 70%"

====

molecular target: PHFs from htau24 (Homo sapiens); construct: made in house; host or cells: E. coli; assay: Thioflavine S assay, depolymerisation of pre-formed PHFs, htau24; assay type: biochemical; conditions: ThS fluorescence, pre-formed PHFs; read-out: Depolymerisation of PHFs DC50, hTau24
Sequence (P10636 1-383 isoform P10636-6): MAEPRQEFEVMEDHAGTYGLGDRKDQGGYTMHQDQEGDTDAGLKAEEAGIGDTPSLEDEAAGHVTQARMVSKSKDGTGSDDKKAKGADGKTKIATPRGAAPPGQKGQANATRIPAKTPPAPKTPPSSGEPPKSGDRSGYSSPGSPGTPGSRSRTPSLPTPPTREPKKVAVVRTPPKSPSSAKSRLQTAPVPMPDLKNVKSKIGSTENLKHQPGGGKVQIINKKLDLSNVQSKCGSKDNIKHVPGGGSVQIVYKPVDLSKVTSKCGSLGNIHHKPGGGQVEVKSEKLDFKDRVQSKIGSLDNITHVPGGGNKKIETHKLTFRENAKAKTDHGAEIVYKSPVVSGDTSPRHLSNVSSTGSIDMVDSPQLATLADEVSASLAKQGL
Listed here are compounds together with their documented DC50.
measured-quantity: DC50

compound="COc1cccc2c1C(=O)c1c(O)c3c(c(O)c1C2=O)CC(O)(C(C)=O)CC3OC1CC(N)C(O)C(C)O1 (stereo not shown) [Daunorubicin, reference compound]" tgt="PHFs from htau24 (Homo sapiens)" measured_quantity=DC50 result="> 60 µM"
compound=O=C(c1ccccc1)c1ccc(O)c(O)c1O tgt="PHFs from htau24 (Homo sapiens)" measured_quantity=DC50 result="10.8 µM"
compound="Cc1cc(O)c2c(c1)C(=O)c1cc(O)cc(O)c1C2=O [Emodin, 1,3,8-Trihydroxy-6-methyl-anthraquinone]" tgt="PHFs from htau24 (Homo sapiens)" measured_quantity=DC50 result="> 60 µM"
compound="O=C1c2ccc(O)c(O)c2C(=O)c2c(O)ccc(O)c21 [PHF016, 1,2,5,8-Tetrahydroxy-anthraquinone]" tgt="PHFs from htau24 (Homo sapiens)" measured_quantity=DC50 result="39.2 µM"
